Assay: Toxicity in ICR mouse assessed as maximal tolerated dose
Conditions: in vivo
Property: MTD (mg/kg)
The reply should contain only the number, in mg/kg.

Ask: What measured MTD goes with C[C@]12N3Cc4c(c(OCCCC(=O)[O-])c5ccccc5c4OCCCC(=O)[O-])CN1C(=O)N1CN4C(=O)N5CN6C(=O)N7CN8C(=O)N9Cc%10c(c(OCCCC(=O)[O-])c%11ccccc%11c%10OCCCC(=O)[O-])CN%10C(=O)N(CN%11C(=O)N(CN%12C(=O)N(CN(C3=O)[C@]12C)[C@@H]4[C@H]%125)[C@@H]6[C@H]%117)[C@]8(C)[C@@]9%10C.[Na+].[Na+].[Na+].[Na+] ?
Reply: 550
